We begin with pKi values for σ1-receptor (Cavia porcellus, UniProt Q60492), as collected from the published literature.
One number for each entry, as −log10 of the molar value.

Clc1c(OCCCCN2CCN(C3CCCCC3)CC2)nn2c1CCCC2	7.94

Report pKi for each item below.
1. Clc1ccc(-n2ccc(CCCCN3CCOCC3)n2)cc1Cl
2. Oc1cccc(Nc2ncc3n2CCN(Cc2ccccc2)C3)c1
3. Fc1ccc(Nc2ncc3n2CCN(CC2CCCCC2)C3)cc1

stdout:
8.20
7.20
8.10

====

pKi: −log10 of the molar value.
We begin with pKi values for σ1-receptor (Cavia porcellus), as collected from the published literature.
Class boundaries, taken from values of pKi, are as follows: low bin = under 7, mid bin = from 7 up to 8, high bin = 8 and over

Illustrative cases are given below, each with its answer.
Clc1ccc(CCN2CCCC(N3CCCC3)C2)cc1Cl (centres unmarked)	high bin
COc1ccc(CN2CCn3c(cnc3Nc3ccc(F)cc3)C2)cn1	low bin
CCc1nnn2c1CO[C@@H]1CN(Cc3ccccc3)C[C@H]12 (relative stereo)	low bin

stdin: Quick check: band for c1ccc(N2CCN(CC3OCCc4c3cnn4-c3ccccc3)CC2)cc1 (centres unmarked)
stdout: mid bin

stdin: Quick check: band for CN1CCN(C[C@@H]2C[C@H](COCc3ccccc3)C2(C)C)CC1
stdout: high bin

stdin: Quick check: band for CC(C)CCOc1ccc2c(c1)[C@H]1OCCC[C@H]1[C@@H](C1CCOCC1)N2
stdout: mid bin

stdin: Quick check: band for CN(C)CCC1OCCc2c1cnn2-c1ccccc1 (centres unmarked)
stdout: mid bin

stdin: Quick check: band for O=C(CCc1ccccc1)N1C[C@@H]2[C@@H](C1)OCc1c(-c3ccccc3)nnn12 (relative stereo)
stdout: low bin

stdin: Quick check: band for CC1(C)[C@@H](CCO)C[C@H]1CN1CCC(c2ccccc2)CC1
stdout: high bin

stdin: Quick check: band for Cc1cc(CCCN2CCOCC2)nn1C1CCCCC1
stdout: mid bin

stdin: Quick check: band for Fc1ccc(-c2ncnc3c2cnn3CCN2CCCCC2)c(C(F)(F)F)c1
stdout: mid bin

stdin: Quick check: band for c1ccc(OC2CCN(CCCCOc3cc4ccccn4n3)CC2)cc1
stdout: mid bin

stdin: Quick check: band for c1ccc(N2CCN(CCC3OCCc4c3cnn4-c3ccccc3)CC2)cc1 (centres unmarked)
stdout: high bin

stdin: Quick check: band for Fc1ccc(Nc2ncc3n2CCN(Cc2ccc(F)cn2)C3)cc1
stdout: low bin

stdin: Quick check: band for CN1CCN(CC2OCCc3c2cnn3-c2ccccc2)CC1 (centres unmarked)
stdout: low bin
